Target: VcCA (α-class carbonic anhydrase from Vibrio cholerae) (Vibrio cholerae)
Construct: gene VC_A0274
Sequence (Q9KMP6 21-239 limits assumed): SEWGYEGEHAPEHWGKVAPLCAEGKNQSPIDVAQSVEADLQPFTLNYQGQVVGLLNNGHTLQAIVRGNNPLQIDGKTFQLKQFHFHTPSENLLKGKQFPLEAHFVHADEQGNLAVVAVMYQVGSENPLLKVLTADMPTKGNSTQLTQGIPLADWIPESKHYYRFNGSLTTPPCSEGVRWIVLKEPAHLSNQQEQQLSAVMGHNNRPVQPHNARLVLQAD
Assay: stopped-flow CO2 hydration assay, Cheng-Prusoff
Format: biochemical
Details: read-out: KI * (nM) / VcCA; CO2 substrate, pH 7.4, 10 mM Hepes, 0.1 M NaClO4, 25 °C, 15 min pre-incubation
For each record, check the reported Ki: if it is below 70 nM write 1, else write -1.

In the record for C=NNC(=O)c1[nH]c2ccc(S(N)(=O)=O)cc2c1-c1ccccc1 [compound 10, 10 (R = H, R1 = H)] , is Ki less than 70 nM? 1

Record NS(=O)(=O)c1ccc2[nH]c(C(=O)NN=Cc3cccnc3)c(-c3ccccc3)c2c1 [compound 7, 7 (R = H, R1 = pyridin-3-yl)] : is its Ki strictly below 70 nM? -1

I wonder whether NS(=O)(=O)c1ccc2[nH]c(C(=O)NN=C3CCC(c4ccccc4)CC3)c(-c3ccccc3)c2c1 (stereo not shown) [compound 21, 21 (R/R1 = 4-phenylcyclohexyl)] has Ki below 70 nM. Can you tell? 1

Decide: Ki of CCC1CCC(=NNC(=O)c2[nH]c3ccc(S(N)(=O)=O)cc3c2-c2ccccc2)CC1 (stereo not shown) [compound 19, 19 (R/R1 = 4-ethylcyclohexyl)] strictly below 70 nM? 1

Does NS(=O)(=O)c1ccc2[nH]c(C(=O)NN=Cc3c[nH]c4ccccc34)c(-c3ccccc3)c2c1 [compound 9, 9 (R = H, R1 = indol-3-yl)] have Ki strictly under 70 nM? 1

A record lists Cn1cccc1C=NNC(=O)c1[nH]c2ccc(S(N)(=O)=O)cc2c1-c1ccccc1 [compound 6, 6 (R = H, R1 = 1-CH3-pyrrol-2-yl)] . Is its Ki below 70 nM? -1

Dear reviewer, please state whether CC(C)=NNC(=O)c1[nH]c2ccc(S(N)(=O)=O)cc2c1-c1ccccc1 [compound 12, 12 (R = CH3, R1 = CH3)] has Ki strictly beneath 70 nM. 1

Just wondering, is Ki of CC=NNC(=O)c1[nH]c2ccc(S(N)(=O)=O)cc2c1-c1ccccc1 [compound 11, 11 (R = H, R1 = CH3)] below 70 nM? 1

Please indicate whether the reported Ki of NS(=O)(=O)c1ccc2[nH]c(C(=O)NN=C3CCN(Cc4ccccc4)CC3)c(-c3ccccc3)c2c1 [compound 24, 24 (R/R1 = 1-benzylpiperidin-4-yl)] is strictly below 70 nM. -1

In the record for CC(CC(C)C)=NNC(=O)c1[nH]c2ccc(S(N)(=O)=O)cc2c1-c1ccccc1 [compound 15, 15 (R = CH3, R1 = isobutyl)] , is Ki less than 70 nM? -1

Problem: For the compound NS(=O)(=O)c1ccc2[nH]c(C(=O)NN=C3CCCCC3)c(-c3ccccc3)c2c1 [compound 17, 17 (R/R1 = cyclohexyl)] , is Ki under 70 nM? -1

Dear reviewer, please state whether NS(=O)(=O)c1ccc2[nH]c(C(=O)NN=Cc3cccs3)c(-c3ccccc3)c2c1 [compound 4, 4 (R = H, R1 = thiophen-2-yl)] has Ki strictly beneath 70 nM. -1

* * *

Target: VcCA (α-class carbonic anhydrase from Vibrio cholerae) (Vibrio cholerae)
Construct: gene VC_A0274
Test: stopped-flow CO2 hydration assay, Cheng-Prusoff
Format: biochemical
Conditions: read-out: KI * (nM) / VcCA; CO2 substrate, pH 7.4, 10 mM Hepes, 0.1 M NaClO4, 25 °C, 15 min pre-incubation
Friendly reminder: Ki below 70 nM is Condition met, at or above is Condition not met.

In plain terms, does CC(C)(C)C1CCC(=NNC(=O)c2[nH]c3ccc(S(N)(=O)=O)cc3c2-c2ccccc2)CC1 (stereo not drawn) [compound 22, 22 (R/R1 = 4-tert-butylcyclohexyl)] come in under 70 nM for Ki? Condition met

Is Ki of CN1CCC(=NNC(=O)c2[nH]c3ccc(S(N)(=O)=O)cc3c2-c2ccccc2)CC1 [compound 23, 23 (R/R1 = 1-methylpiperidin-4-yl)] strictly below 70 nM? Condition met

Does the reported Ki of CCCC1CCC(=NNC(=O)c2[nH]c3ccc(S(N)(=O)=O)cc3c2-c2ccccc2)CC1 (stereo not drawn) [compound 20, 20 (R/R1 = 4-propylcyclohexyl)] stay below 70 nM? Condition met

State whether 70 nM exceeds Ki recorded for NS(=O)(=O)c1ccc2[nH]c(C(=O)NN=Cc3ccc(Br)s3)c(-c3ccccc3)c2c1 [compound 5, 5 (R = H, R1 = 5-Br-thiophen-2-yl)] . Condition not met
